system: male C57BL/6J mice; assay: Acute single dose 120-min time-course experiment, in vivo glucose reduction; design: unit not given here; settings: 2 μM/kg, oral; 0 min; n = 8, Mean ± SEM
property_name: blood glucose level (in vivo glucose reduction)
Please give only the number in your answer, with no unit.

Worked cases, blood glucose level (in vivo glucose reduction) given:
>>> reported_result("CCc1cc(OC)ccc1-c1ccc(CC(NC(=O)[C@H](CC(=O)O)NC(=O)[C@H](CO)NC(=O)[C@@H](NC(=O)C(C)(Cc2c(F)cccc2F)NC(=O)[C@@H](NC(=O)CNC(=O)[C@H](CCC(=O)O)NC(=O)C(C)(C)NC(=O)[C@H](Cc2c[nH]cn2)NC(=O)[C@@H](N)C(C)C)[C@@H](C)O)[C@@H](C)O)C(=O)NC(C)(CCCc2ccccc2)C(N)=O)cc1 (single isomer, unassigned) [Seq. ID. No. 105]")
185
>>> reported_result("CCc1cc(OC)ccc1-c1ccc(CC(C)(NC(=O)[C@H](CC(=O)O)NC(=O)C(C)(CO)NC(=O)[C@@H](NC(=O)C(C)(Cc2c(F)cccc2F)NC(=O)[C@@H](NC(=O)CNC(=O)[C@H](CCC(=O)O)NC(=O)[C@H](CO)NC(=O)[C@H](Cc2c[nH]cn2)NC(=O)[C@@H](N)C(C)C)[C@@H](C)O)[C@@H](C)O)C(=O)NC(C)(CCCc2ccccc2)C(N)=O)cc1 (single isomer, unassigned) [Seq. ID. No. 177]")
183

Q) Item CCc1cc(OC)ccc1-c1ccc(CC(C)(NC(=O)[C@H](CC(=O)O)NC(=O)[C@H](CO)NC(=O)[C@@H](NC(=O)C(C)(Cc2ccccc2F)NC(=O)[C@@H](NC(=O)CNC(=O)[C@H](CCC(=O)O)NC(=O)[C@H](CO)NC(=O)[C@H](Cc2c[nH]cn2)NC(=O)[C@@H](N)C(C)C)[C@@H](C)O)[C@@H](C)O)C(=O)NC(C)(CCCc2ccccc2)C(N)=O)cc1 (single isomer, unassigned) [Seq. ID. No. 145] has what recorded blood glucose level (in vivo glucose reduction)?
A) 184

Q) Look up blood glucose level (in vivo glucose reduction) for this molecule: CCc1cc(OC)ccc1-c1ccc(CC(NC(=O)C(C)(CC(=O)O)NC(=O)C(C)(CO)NC(=O)[C@@H](NC(=O)C(C)(Cc2ccccc2F)NC(=O)[C@@H](NC(=O)CNC(=O)[C@H](CCC(N)=O)NC(=O)C2(C)CCCN2C(=O)[C@H](Cc2c[nH]cn2)NC(=O)[C@@H](N)C(C)C)[C@@H](C)O)[C@@H](C)O)C(=O)NC(C)(CCCc2ccccc2)C(N)=O)cc1 (single isomer, unassigned) [Seq. ID. No. 118]
A) 184

Q) I am curious: what blood glucose level (in vivo glucose reduction) value has been reported for CCc1cc(OC)ccc1-c1ccc(CC(C)(NC(=O)C(C)(CC(=O)O)NC(=O)[C@H](CO)NC(=O)[C@@H](NC(=O)[C@H](Cc2ccccc2)NC(=O)[C@@H](NC(=O)CNC(=O)[C@H](CCC(=O)O)NC(=O)C(C)(C)NC(=O)[C@H](Cc2c[nH]cn2)NC(=O)[C@@H](N)C(C)C)[C@@H](C)O)[C@@H](C)O)C(=O)NC(C)(CCCc2ccccc2)C(N)=O)cc1 (single isomer, unassigned) [Seq. ID. No. 187] ?
A) 183
